Molecular target: Beta-adrenergic receptor kinase 1 (Homo sapiens) (UniProt P25098)
Sequence (P25098 whole entry, looked up): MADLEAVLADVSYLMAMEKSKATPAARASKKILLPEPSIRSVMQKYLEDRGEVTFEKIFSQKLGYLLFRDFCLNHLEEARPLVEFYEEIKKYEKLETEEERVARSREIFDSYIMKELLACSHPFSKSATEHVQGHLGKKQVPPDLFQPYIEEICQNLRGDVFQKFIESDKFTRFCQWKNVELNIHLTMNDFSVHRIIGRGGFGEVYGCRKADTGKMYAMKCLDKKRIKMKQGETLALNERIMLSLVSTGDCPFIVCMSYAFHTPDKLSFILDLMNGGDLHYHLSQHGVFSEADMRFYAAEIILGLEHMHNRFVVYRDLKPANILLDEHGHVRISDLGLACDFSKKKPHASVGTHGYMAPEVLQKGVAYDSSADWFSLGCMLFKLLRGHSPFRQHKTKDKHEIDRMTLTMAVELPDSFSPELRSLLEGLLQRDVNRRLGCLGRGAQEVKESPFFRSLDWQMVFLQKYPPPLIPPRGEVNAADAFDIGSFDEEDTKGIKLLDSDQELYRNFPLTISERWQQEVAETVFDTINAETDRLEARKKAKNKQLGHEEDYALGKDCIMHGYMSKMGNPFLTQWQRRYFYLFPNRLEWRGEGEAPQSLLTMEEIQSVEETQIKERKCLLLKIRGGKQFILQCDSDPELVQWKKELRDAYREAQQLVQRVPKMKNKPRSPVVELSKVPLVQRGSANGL
Assay: compounds blocking aptamer binding on GRK2 – biochemical, human GRK2, bead flow cytometry, HTS, primary screen (AID 488847);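 note: median bead fluorescence of bound FAM aptamer so fluorescent compounds give negative values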
Conditions: FAM-aptamer displacement from GRK2, at 10 µM, active compounds read high
Screen size: about 330,000 compounds; about 1,900 (0.58%) were called active. The sample holds actives, similar compounds and a random draw of the others, so the mix is not that of the screen.
resultType: inhibition of aptamer binding (%)

CN(CC(=O)Nc1ccc(Cl)c(C(F)(F)F)c1)C(=O)CCC(=O)c1ccccc1 : 1
Cc1nn2cc(-c3ccc(Cl)cc3)cnc2c1Br : 4
Cc1nnc(NC(=O)CCC(=O)N2CCC(C)CC2)s1 : 2
C/C(=N\N=C(N)N)c1ccc(Cl)cc1 : 0
NC(=O)CC(NC(=O)Cc1cccc2ccccc12)c1ccc(NCc2cc(F)ccc2F)c([N+](=O)[O-])c1 (stereo unspecified) : 1
O=C(COC(=O)CSc1ccccc1)Nc1ccc(F)cc1F : 3
Cc1cc(/C=C2/SC(=O)N(CC(=O)OC(C)C)C2=O)c(C)n1C : 2
O=C(C1CCC1)N1CCN(S(=O)(=O)c2ccc([N+](=O)[O-])cc2)CC1 : 1
Cc1ccc(OCC(=O)Oc2ccccc2[N+](=O)[O-])cc1 : 1
CCC(C)(C)N=C(NC#N)Nc1cccnc1 : 0
CC(Sc1nnc(-c2ccccc2F)n1C1CC1)C(N)=O (stereo unspecified) : 0
Cc1ncc(CC(=O)n2cc(C(=O)c3cc(Cl)ccc3O)cn2)s1 : 6
Cn1c(=O)c2c(nc(N3CCOCC3)n2CCNC2=NCCC2)n(C)c1=O : 83
COc1nc(NC2CCCCC2)nc(N2CCCCCC2)n1 : 1
CCn1nc(C)c(NC(=O)/C=C/c2ccc(OC)c(COc3ccc(Br)cc3)c2)c1C : 1
CCN1CCN(CC(=O)Nc2sc3c(c2C#N)CCC3)CC1 : 0
CCc1ccc2oc(=O)cc(CN3CCCCC3C)c2c1 (stereo unspecified) : 0
CCCCn1c(SCC(=O)N2CCOCC2)nc2c1c(=O)n(C)c(=O)n2C : 0
O=C1CSC(=O)N1CCOCCN1C(=O)CSC1=O : 3
O=C(c1cnn(-c2ccc(Cl)cc2)c1)c1ccccc1O : 47
Cc1cccc(C(=O)OCC(=O)Nc2sc3c(c2C#N)CCC3)c1 : 6
Cc1ccc(S(=O)(=O)N2CCCC(C(=O)N3CCN(C)CC3)C2)cc1 (stereo unspecified) : 4
O=C(Nc1ccc(-c2nnc(-c3ccccc3)o2)cc1)c1ccc(Br)o1 : 92
CCOC(=O)C1CCCN(CCSc2ccc(C)cc2)C1 (stereo unspecified) : 0
O=C(CNC(=O)c1ccc(Br)o1)Nc1ccccc1 : 1
O=C(Nc1ccccc1)Nc1ccc(C(F)(F)F)cn1 : 0

----------
Entries and their inhibition of aptamer binding
Molecular target: Beta-adrenergic receptor kinase 1 (Homo sapiens) (UniProt P25098)
Test: compounds blocking aptamer binding on GRK2 – biochemical, human GRK2, bead flow cytometry, HTS, primary screen (AID 488847);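 note: median bead fluorescence of bound FAM aptamer so fluorescent compounds give negative values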
Settings: FAM-aptamer displacement from GRK2, at 10 µM, active compounds read high
About 1,900 (0.58%) of roughly 330,000 compounds were called active. This excerpt belongs to a sample that is enriched for actives.
resultType: inhibition of aptamer binding (%)

CC1CCCCC1NC(=O)CN1CCC(O)(c2ccc3c(c2)OCO3)CC1 (stereo not given) : 1
O=C(CSCc1ccc([N+](=O)[O-])cc1)NCCSCc1ccccc1 : 0
COc1ccc(Nc2cc(Sc3ccc(OC)cc3)ncn2)cc1 : 46
Cc1nc(Nc2ccc3c(c2)OCCO3)c2nnn(Cc3ccccc3Cl)c2n1 : 0
Cc1cc(C)c2nc(N3CCC(C(=O)NCCN4CCOCC4)CC3)sc2c1 : 1
CCOC(=O)c1ccc(S(=O)(=O)N(CCO)Cc2cc3cc(OC)c(OC)cc3[nH]c2=O)cc1 : 0
CCOC(=O)c1cc2c(ccn2C)n1CC(=O)N1CCC(C)CC1 : 1
CCCc1nc2ccccc2c(=O)n1NC(=O)c1c(O)c2ccccc2[nH]c1=O : 92
CCN1C(=O)[C@H]2[C@@H](c3ccc(SC4CCCCC4)c(OC)c3)N[C@@](Cc3ccccc3)(C(=O)OC)[C@H]2C1=O : 0
Cc1nc(Nc2ccc(S(=O)(=O)N3CCCC3)cc2)c2nnn(Cc3ccccc3)c2n1 : 0
Cc1nc(Nc2ccccc2F)c2nnn(Cc3ccccc3Cl)c2n1 : 47
Cc1ccc(NC(=O)COC(=O)CNC(=O)c2ccc(Cl)cc2Cl)cc1S(=O)(=O)N1CCOCC1 : 2
O=C(NC1CC1)C1=C[C@H](c2coc3ccccc3c2=O)C[C@H](OCCCCO)O1 : 2
O=C(COc1ccccc1)NCCc1nc2ccccc2[nH]1 : 59
CC(OC(=O)/C=C/c1ccccc1)C(=O)NC1CCCCC1C (stereo not given) : 0
Cc1ccccc1CN1CCN(CC(=O)NCc2ccccn2)C1=O : 51
COc1cc(C(=O)N(Cc2ccc(N(C)C)cc2)C2CCS(=O)(=O)C2)cc(OC)c1OC (stereo not given) : 0
CCC(C)(C(=O)Nc1ccccc1C)N(C(=O)CNC(C)=O)c1ccc(C)cc1 (stereo not given) : 1
CC1(c2cccc([N+](=O)[O-])c2)CC(C)(C)N(C(=O)c2ccccc2)c2ccccc21 (stereo not given) : 0
COc1cc(OC)cc(C(=O)Nc2nnc(SCC(=O)NCC3CCCO3)s2)c1 (stereo not given) : 0
COc1ccc(Nc2ncnc3sc(C)cc23)cc1 : 0
COc1ccc(Nc2nc(=O)[nH]nc2C)cc1 : 4
Cc1cccc(N2C(=O)c3ccc(C(=O)Nc4cccc(C(=O)O)c4)cc3C2=O)c1 : 0
Cc1nn(CC(=O)NCc2ccccn2)c(C)c1[N+](=O)[O-] : 1
CC(Sc1nncn1C)C(=O)Nc1cc(C(F)(F)F)ccc1N1CCOCC1 (stereo not given) : 0
CN(C)c1ccc(NC(=S)N(CCc2ccccc2)C2CC(=O)N(c3c(Cl)cccc3Cl)C2=O)cc1 (stereo not given) : 1
Cc1ccc(-c2cc(=O)[nH]c(NCc3ccccc3)n2)cc1 : 2
COc1ccc(CN2CCN(Cc3cn(C)nc3-c3ccccc3)CC2CCO)c(C)c1C (stereo not given) : 0
C=CC1=C(C(=O)O)N2C(=O)[C@@H](NC(=O)/C(=N/OCC(=O)O)c3csc(N)n3)[C@H]2SC1 : 0
COc1ccccc1N(C)S(=O)(=O)c1ccc(Cl)c(C(=O)Nc2ccncc2)c1 : 0
O=S(=O)(c1ccc(OCC(O)CN2CCN(c3ccccc3Cl)CC2)cc1)N1CCOCC1 (stereo not given) : 0
C=CC1=C(C(=O)O)N2C(=O)[C@@H](NC(=O)/C(=N\OCC(=O)O)c3csc(N)n3)[C@H]2SC1 : 66
COCCCNC(=O)CN1CCN(Cc2ccccc2Cl)C1=O : 4
OC(COc1ccc(Br)cc1)CN1CCCC1 (stereo not given) : 0
CC(=O)c1ccc(OCC(O)CN2CCN(S(=O)(=O)c3cccc(Br)c3)CC2)cc1 (stereo not given) : 88
CCN1C(=O)[C@H]2[C@@H](c3ccc(-c4ccc(OC)cc4)cc3)N[C@@](Cc3ccccc3)(C(=O)OC)[C@H]2C1=O : 43
O=C(CNC(c1ccccc1)c1ccccc1)Nc1ccc(F)cc1 : 1
CCOC(=O)N1CCC(NC(=O)C(C)n2c3ccccc3c3cnn(C)c(=O)c32)CC1 (stereo not given) : 4
CC1(c2ccccc2)CC(C)(C)N(C(=O)c2cc([N+](=O)[O-])cc([N+](=O)[O-])c2)c2ccccc21 (stereo not given) : 0
CCN1C(=O)[C@H]2[C@@H](c3ccc(-c4ccc(F)cc4)cc3)N[C@@](Cc3ccccc3)(C(=O)OC)[C@H]2C1=O : 0

----------
Biological target: Beta-adrenergic receptor kinase 1 (Homo sapiens) (UniProt P25098)
Assay: compounds blocking aptamer binding on GRK2 – biochemical, human GRK2, bead flow cytometry, HTS, primary screen (AID 488847);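 note: median bead fluorescence of bound FAM aptamer so fluorescent compounds give negative values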
Settings: FAM-aptamer displacement from GRK2, at 10 µM
About 1,900 (0.58%) of roughly 330,000 compounds were called active.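 Rule for the calls: active = inhibition of aptamer binding above 40%, roughly 3 SD of noise, on plates passing a quality check; inactive = the rest.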 Shown is part of a subset that was picked to be rich in actives.
Outcome codes: active, inactive

CCc1cccc(CC)c1NC(=S)NCc1ccc2[nH]c(C)cc2c1 : inactive
Cc1ccc(S(=O)(=O)N2CCN(CC(=O)N/N=C/c3cc([N+](=O)[O-])ccc3Cl)CC2)cc1 : inactive
O=C(ON=C1CCN(S(=O)(=O)c2ccccc2)CC1)c1ccc(Cl)cc1 : inactive
Cc1ccc(Sc2cc(C(=O)c3ccccc3C(=O)O)ccc2[N+](=O)[O-])cc1 : inactive
O=[N+]([O-])c1cc(Cl)cc(/C=N/NC(=S)Nc2cc(S(=O)(=O)N3CCOCC3)ccc2Cl)c1O : active
CCOC(=O)N1CCN(C(=O)c2ccc(CN(c3ccc(C)c(C)c3)S(C)(=O)=O)cc2)CC1 : inactive
COc1cc(/C=N/NC(=O)c2ccc(N3CCCC3=O)cc2)ccc1O : active
CCCCc1nc2ccccc2c(=O)n1NC(=O)c1c(O)c2cccc3c2n(c1=O)CC3 : inactive
COc1cc(C(=O)Nn2c(CC(C)C)nc3ccccc3c2=O)cc(OC)c1OC : inactive
